Values were extracted from ChEMBL document CHEMBL1143232.

Consider the following molecules; for each one, report its CC50 at 69 h.
- assay.explanation: Cytotoxicity against african green monkey Vero cells after 69 hrs by Alamar blue assay
- Assay type: cell-based
- assay.conditions: chlorocebus sabaeus

Previously resolved entries follow.
Q) Can you look up the measured CC50 at 69 h of CC(C)(C)SCCNC(=S)c1cccc(C(=S)NCCSC(C)(C)C)n1 for me?
A) 37 µM

Q) Can you look up the measured CC50 at 69 h of O=C(CCNC(=O)c1cccc(C(=O)NCCC(=O)NO)n1)NO for me?
A) > 100 µM

Q) Can you look up the measured CC50 at 69 h of O=C(O)CCNC(=O)c1cccc(C(=O)NCCC(=O)O)n1 for me?
A) > 100 µM

Q) Can you look up the measured CC50 at 69 h of O=C(O)CCNC(=O)c1cc(-c2cccc3ccccc23)cc(C(=O)NCCC(=O)O)n1 for me?
A) > 100 µM

Q) Can you look up the measured CC50 at 69 h of COC(=O)C(Cc1c[nH]cn1)NCc1cc(N(C)C)cc(C(=O)NC(Cc2c[nH]cn2)C(=O)OC)n1 (centres undefined) for me?
A) > 100 µM

Q) Can you look up the measured CC50 at 69 h of O=C(CCNC(=O)c1cc(-c2cccc3ccccc23)cc(C(=O)NCCC(=O)NO)n1)NO for me?
A) > 100 µM

Q) Can you look up the measured CC50 at 69 h of CC(C)(C)SCCNC(=O)c1cccc(C(=O)NCCSC(C)(C)C)n1 for me?
A) 500 µM

Q) Can you look up the measured CC50 at 69 h of CSCCNC(=O)c1cccc(C(=O)NCCSC)n1 for me?
A) > 100 µM

Moving on to another molecule below.
Q) Can you look up the measured CC50 at 69 h of Nc1nc2c(ncn2COCCO)c(=O)[nH]1 for me?
A) > 100 µM
